# TARGET_DESC: UniProt P15735
# Sequence (P15735 whole entry): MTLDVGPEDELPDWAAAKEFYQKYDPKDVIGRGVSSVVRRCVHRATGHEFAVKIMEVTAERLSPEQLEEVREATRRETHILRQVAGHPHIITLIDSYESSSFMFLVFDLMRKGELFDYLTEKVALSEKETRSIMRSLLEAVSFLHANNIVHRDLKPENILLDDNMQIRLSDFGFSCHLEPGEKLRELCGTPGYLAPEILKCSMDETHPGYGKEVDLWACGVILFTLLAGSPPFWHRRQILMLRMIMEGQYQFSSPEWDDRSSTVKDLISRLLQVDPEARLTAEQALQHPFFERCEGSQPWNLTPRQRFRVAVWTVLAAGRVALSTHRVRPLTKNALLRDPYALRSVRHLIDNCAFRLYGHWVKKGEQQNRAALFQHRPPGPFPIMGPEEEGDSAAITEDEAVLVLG
# EXPERIMENTAL_DETAILS: Kinase panel profiling at 1 µmol/L (MSA or IMAP), percentage inhibition
# Format: biochemical
# CONDITION: kinase PHKG2; 1 µmol/L single concentration; read-out: %-inhibition at 1 µmol/L, PHKG2
Recorded inhibition at 1 µM by entry
QUANTITY: inhibition at 1 µM (%)

INSERT INTO measurements (structure_string, measured_value) VALUES
  ('COc1ccc(CN2C3CC2CN(c2ccc(-c4cc(OCC(C)(C)O)cn5ncc(C#N)c45)cn2)C3)cn1', 6.5),
  ('CCc1nc(C(N)=O)c(Nc2ccc(N3CCC(N4CCN(C)CC4)CC3)c(OC)c2)nc1NC1CCOCC1', 59),
  ('CCn1c(=O)c(-c2cc(NC(=O)Nc3ccccc3)c(F)cc2Br)cc2cnc(NC)cc21', 1.5),
  ('Cc1cc(Nc2ncnc3ccc(NC4=NC(C)(C)CO4)cc23)ccc1Oc1ccn2ncnc2c1', -0.185),
  ('COC(=O)N[C@@H](C)CNc1nccc(-c2cn(C(C)C)nc2-c2cc(Cl)cc(NS(C)(=O)=O)c2F)n1', -1.79),
  ('Cn1cnc2c(F)c(Nc3ccc(Br)cc3F)c(C(=O)NOCCO)cc21', -3.26),
  ('C=CC(=O)N1CCC([C@@H]2CCNc3c(C(N)=O)c(-c4ccc(Oc5ccccc5)cc4)nn32)CC1', 4.22);
